// reported Emax for each item listed
Molecular target: F508delCFTR (Homo sapiens, UniProt P13569, DEL508-508)
Construct: expressed in transfected cells; host or cells: CFBE41o- human lung-derived epithelial cells (CFBE41o-F508delCFTR-HRP), doxycycline-inducible
Sequence (P13569 with tags, fused parts or gaps DEL508-508): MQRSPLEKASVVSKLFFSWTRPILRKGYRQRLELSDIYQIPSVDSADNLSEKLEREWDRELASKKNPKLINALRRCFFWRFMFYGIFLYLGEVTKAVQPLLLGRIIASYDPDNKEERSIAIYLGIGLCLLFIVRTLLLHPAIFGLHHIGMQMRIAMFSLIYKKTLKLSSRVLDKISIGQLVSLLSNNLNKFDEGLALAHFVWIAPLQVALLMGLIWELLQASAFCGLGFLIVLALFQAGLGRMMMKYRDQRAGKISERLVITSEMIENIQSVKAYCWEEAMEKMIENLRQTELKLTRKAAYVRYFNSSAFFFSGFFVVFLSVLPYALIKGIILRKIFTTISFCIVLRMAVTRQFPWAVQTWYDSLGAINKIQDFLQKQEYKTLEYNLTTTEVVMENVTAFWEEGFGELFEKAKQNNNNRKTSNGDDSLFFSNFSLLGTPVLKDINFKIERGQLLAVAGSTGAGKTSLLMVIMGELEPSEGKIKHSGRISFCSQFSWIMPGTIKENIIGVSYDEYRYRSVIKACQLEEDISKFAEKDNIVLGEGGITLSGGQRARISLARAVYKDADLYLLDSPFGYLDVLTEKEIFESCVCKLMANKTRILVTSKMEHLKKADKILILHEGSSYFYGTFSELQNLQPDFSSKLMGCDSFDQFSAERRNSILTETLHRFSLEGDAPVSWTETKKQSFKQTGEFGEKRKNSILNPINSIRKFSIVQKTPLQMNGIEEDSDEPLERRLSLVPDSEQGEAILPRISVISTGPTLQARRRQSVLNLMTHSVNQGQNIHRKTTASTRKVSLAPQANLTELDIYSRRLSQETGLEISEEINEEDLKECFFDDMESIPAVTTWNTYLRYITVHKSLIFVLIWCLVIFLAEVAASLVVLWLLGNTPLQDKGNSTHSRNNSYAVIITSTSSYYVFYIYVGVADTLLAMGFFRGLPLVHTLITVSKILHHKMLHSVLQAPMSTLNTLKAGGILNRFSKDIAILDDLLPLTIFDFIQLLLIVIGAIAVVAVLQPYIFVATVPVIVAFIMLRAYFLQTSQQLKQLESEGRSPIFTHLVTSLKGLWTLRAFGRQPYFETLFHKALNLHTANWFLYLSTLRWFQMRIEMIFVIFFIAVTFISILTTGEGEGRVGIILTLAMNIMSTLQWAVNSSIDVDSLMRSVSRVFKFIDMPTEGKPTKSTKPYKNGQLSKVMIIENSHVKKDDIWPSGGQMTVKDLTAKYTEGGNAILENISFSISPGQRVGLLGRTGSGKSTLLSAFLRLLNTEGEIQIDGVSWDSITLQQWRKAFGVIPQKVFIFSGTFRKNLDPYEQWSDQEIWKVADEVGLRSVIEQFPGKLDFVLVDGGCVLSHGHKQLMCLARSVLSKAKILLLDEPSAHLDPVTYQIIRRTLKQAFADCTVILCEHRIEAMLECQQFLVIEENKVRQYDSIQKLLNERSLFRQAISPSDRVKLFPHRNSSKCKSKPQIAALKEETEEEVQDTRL
Experiment: Cell Surface Expression-Horse Radish Peroxidase (CSE-HRP) assay, test compound without co-corrector;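 also: percent of on-plate 2 µM positive control corrector response over DMSO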
Type: cell-based
Conditions: maximum at any tested concentration, normalized to positive control, without co-corrector
reported.property: Emax

{"columns": ["compound", "result"],
 "data": [
  ["CC[C@@]1(C(=O)NS(=O)(=O)c2cccc3ccccc23)CCCc2cccc(Cl)c21", "≥ 150%"],
  ["COc1ncc(Br)c2c1[C@H](C(=O)NS(=O)(=O)c1cccc3ccccc13)CCC2", "≥ 150%"],
  ["CCC1(C(=O)NS(=O)(=O)c2ccccc2)CCc2c(Cl)cccc21 (centres unmarked)", "50 to 150%"],
  ["COc1cccc2c1CCC2C(=O)NS(=O)(=O)c1ccc(C)c([N+](=O)[O-])c1C (centres unmarked)", "< 50%"],
  ["Cc1ccccc1S(=O)(=O)NC(=O)C1CCc2c(Cl)cccc21 (centres unmarked)", "50 to 150%"],
  ["COc1ccc(Br)c2c1C(C(=O)NS(=O)(=O)c1cccc3cccnc13)CC2 (centres unmarked)", "≥ 150%"],
  ["O=C(NS(=O)(=O)c1cccc2ccccc12)C1CCCc2c(Cl)ccc(OCCN3CCOCC3)c21 (centres unmarked)", "≥ 150%"],
  ["CCC1(C(=O)NS(=O)(=O)c2cc(C)ccc2C(C)C)CCc2c(Cl)cccc21 (centres unmarked)", "< 50%"]
]}
